Tested on: HL-60
Experiment: cell viability (% survival relative to DMSO control); higher = less cytotoxic
Experimental context: 0.1 µM; 72 h; co-treatment: AZD3965 100 nM
Test readout: cell viability (%)
Kindly answer with a numeric value in %, unit omitted.

Q. Param item = `CC(C)C[C@H](NC(=O)[C@@H](O)[C@H](N)Cc1ccccc1)C(=O)O` ; retrieve measured cell viability.
A. 99.3

Q. Let us now turn to `O=c1c2ccccc2[se]n1-c1ccccc1`
A. 102

Q. Continue with `COc1cc2c(NC3CCN(C)CC3)nc(N3CCCN(C)CC3)nc2cc1OCCCN(C)C`
A. 100

Q. Item: `Nc1ncnc2c1ncn2[C@@H]1O[C@H](CSCC[C@H](N)C(=O)O)[C@@H](O)[C@H]1O`
A. 101

Q. Same again, this time with `O=P(O)(O)C(O)(Cn1ccnc1)P(=O)(O)O`
A. 102

Q. Next: `CC(/C=C1\SC(=S)N(CC(=O)O)C1=O)=C\c1ccccc1`
A. 106

Q. Same again, this time with Cl.OC[C@H]1NC[C@@H](O)[C@@H](O)[C@@H]1O [1-Deoxymannojirimycin hydrochloride]
A. 101

Q. What do you have for CN(C)c1nc(O)c2[nH]cnc2n1 [2-Dimethylamino-6-hydroxypurine] ?
A. 100

Q. Okay, and `N[C@](CCCCB(O)O)(CCN1CCCCC1)C(=O)O` ?
A. 99.9

Data credit: the supplement of paper PMC8671470
